Biological target: prostate specific membrane antigen (PSMA) (UniProt Q04609 1-750, limits assumed)
Sequence (Q04609 whole entry): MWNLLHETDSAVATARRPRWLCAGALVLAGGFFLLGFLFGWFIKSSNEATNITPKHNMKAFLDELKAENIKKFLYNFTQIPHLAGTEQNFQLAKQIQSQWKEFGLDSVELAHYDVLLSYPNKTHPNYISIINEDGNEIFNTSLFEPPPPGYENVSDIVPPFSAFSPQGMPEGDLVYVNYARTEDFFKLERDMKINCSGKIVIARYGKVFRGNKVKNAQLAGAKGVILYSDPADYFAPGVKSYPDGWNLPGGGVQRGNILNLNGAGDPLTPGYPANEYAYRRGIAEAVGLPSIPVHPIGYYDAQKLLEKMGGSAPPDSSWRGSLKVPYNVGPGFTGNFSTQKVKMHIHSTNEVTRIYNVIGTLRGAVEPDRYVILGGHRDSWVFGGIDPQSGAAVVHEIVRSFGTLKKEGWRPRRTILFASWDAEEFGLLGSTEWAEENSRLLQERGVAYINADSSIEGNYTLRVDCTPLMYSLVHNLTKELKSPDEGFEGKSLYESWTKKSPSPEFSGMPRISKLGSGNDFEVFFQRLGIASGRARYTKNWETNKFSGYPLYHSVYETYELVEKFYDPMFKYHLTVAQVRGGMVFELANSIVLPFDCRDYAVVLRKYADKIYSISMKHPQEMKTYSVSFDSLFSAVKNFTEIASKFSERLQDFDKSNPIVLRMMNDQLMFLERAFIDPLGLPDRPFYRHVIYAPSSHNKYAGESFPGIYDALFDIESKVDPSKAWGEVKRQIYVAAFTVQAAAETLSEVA
Experiment: cell-based or functional assay
measured.attribute: Cell Killing (%), C4-2 cell line

>>> numeric_result("Humanized Anti-PSMA Antibody Variant 1 ADC, MMAF payload, Non-Cleavable (PEG3) linker (antibody, human IgG1, kappa, V domains shown, para-acetyl phenylalanine (pAF) at position A114 (Kabat numbering; first residue of the heavy chain constant region), conjugated to non-cleavable (PEG3) MMAF drug-linker) VH: QVQLVQSGAEVKKPGASVKVSCKASGYTFTEYTIHWVRQAPGQRLEWMGNINPNNGGTTYNQKFEDRVTITRDTSASTAYMELSSLRSEDTAVYYCAAGWNFDYWGQGTTLTVSS VL: DIQLTQSPSFLSASVGDRVTITCKASQDVGTAVDWYQQKPGKAPKLLIYWASTRHTGVPSRFSGSGSGTEFTLTISSLQPEDFATYYCQQYNSYPLTFGGGTKVEIKR")
80.5
>>> numeric_result("Chimeric Anti-PSMA Antibody ADC, MMAF payload, Non-Cleavable (PEG3) linker (antibody, human IgG1, kappa, V domains shown, para-acetyl phenylalanine (pAF) at position A114 (Kabat numbering; first residue of the heavy chain constant region), conjugated to non-cleavable (PEG3) MMAF drug-linker) VH: EVQLQQSGPELVKPGTSVRISCKTSGYTFTEYTIHWVKQSHGKSLEWIGNINPNNGGTTYNQKFEDKATLTVDKSSSTAYMELRSLTSEDSAVYYCAAGWNFDYWGQGTTLTVSS VL: DIVMTQSHKFMSTSVGDRVSIICKASQDVGTAVDWYQQKPGQSPKLLIYWASTRHTGVPDRFTGSGSGTDFTLTITNVQSEDLADYFCQQYNSYPLTFGAGTKVEIKR")
89.5
>>> numeric_result("Humanized Anti-PSMA Antibody Variant 1 ADC, MMAE payload, Short Cleavable (Valine-Citruline-Acetyl) linker (antibody, human IgG1, kappa, V domains shown, para-acetyl phenylalanine (pAF) at position A114 (Kabat numbering; first residue of the heavy chain constant region), conjugated to short cleavable (Valine-Citruline-Acetyl) MMAE drug-linker) VH: QVQLVQSGAEVKKPGASVKVSCKASGYTFTEYTIHWVRQAPGQRLEWMGNINPNNGGTTYNQKFEDRVTITRDTSASTAYMELSSLRSEDTAVYYCAAGWNFDYWGQGTTLTVSS VL: DIQLTQSPSFLSASVGDRVTITCKASQDVGTAVDWYQQKPGKAPKLLIYWASTRHTGVPSRFSGSGSGTEFTLTISSLQPEDFATYYCQQYNSYPLTFGGGTKVEIKR")
81.5
>>> numeric_result("Humanized Anti-PSMA Antibody Variant 2 ADC, MMAF payload, Cleavable (Val-Citruline-PEG1) linker (antibody, human IgG1, kappa, V domains shown, para-acetyl phenylalanine (pAF) at position A114 (Kabat numbering; first residue of the heavy chain constant region), conjugated to cleavable (Val-Citruline-PEG1) MMAF drug-linker) VH: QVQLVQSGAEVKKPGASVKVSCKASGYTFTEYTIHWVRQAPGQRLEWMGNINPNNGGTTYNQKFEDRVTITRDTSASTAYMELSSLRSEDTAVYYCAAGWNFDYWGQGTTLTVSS VL: DIQLTQSPSFLSASVGDRVTITCKASQDVGTAVDWYQQKPGKAPKLLIYWASTRHTGVPSRFSGSGSGTEFTLTISSLQSEDFATYYCQQYNSYPLTFGGGTKVEIKR")
91
>>> numeric_result("Humanized Anti-PSMA Antibody Variant 1 ADC, MMAF payload, Cleavable (Val-Citruline-PEG1) linker (antibody, human IgG1, kappa, V domains shown, para-acetyl phenylalanine (pAF) at position A114 (Kabat numbering; first residue of the heavy chain constant region), conjugated to cleavable (Val-Citruline-PEG1) MMAF drug-linker) VH: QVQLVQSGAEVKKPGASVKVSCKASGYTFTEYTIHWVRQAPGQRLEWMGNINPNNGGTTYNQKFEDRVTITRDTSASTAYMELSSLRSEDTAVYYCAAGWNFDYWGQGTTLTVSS VL: DIQLTQSPSFLSASVGDRVTITCKASQDVGTAVDWYQQKPGKAPKLLIYWASTRHTGVPSRFSGSGSGTEFTLTISSLQPEDFATYYCQQYNSYPLTFGGGTKVEIKR")
91
